Assay: In vitro, non-sink, gastric transfer dissolution (0.01 N HCl then FaSSIF)
Type: physicochemical
Settings: pH 6.8; FaSSIF stage of gastric transfer dissolution; read-out: average drug concentration (solubility) in FaSSIF media
METRIC_NAME: solubility (µg/mL)
Express it in µg/mL; write the number only.

The recorded solubility for entry C[C@]12CC[C@H](O)CC1=CC[C@@H]1[C@@H]2CC[C@]2(C)C(c3cccnc3)=CC[C@@H]12 [Abiraterone API, Abiraterone] equals 11.3
